MEASURED_TARGET: human CD33 on primary human dendritic cells (human, UniProt P20138 18-364)
Sequence (P20138 18-364): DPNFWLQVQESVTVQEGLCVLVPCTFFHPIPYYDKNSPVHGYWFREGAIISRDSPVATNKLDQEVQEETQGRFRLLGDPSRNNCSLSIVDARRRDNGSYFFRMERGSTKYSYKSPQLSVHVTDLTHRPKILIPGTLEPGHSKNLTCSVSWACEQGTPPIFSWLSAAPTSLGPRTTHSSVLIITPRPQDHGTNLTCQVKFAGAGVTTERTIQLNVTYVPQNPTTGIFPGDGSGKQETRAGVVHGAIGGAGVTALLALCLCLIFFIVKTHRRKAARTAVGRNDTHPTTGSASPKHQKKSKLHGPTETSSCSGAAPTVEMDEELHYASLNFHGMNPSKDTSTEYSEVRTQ
ASSAY_NAME: cell-based or functional assay
MEASURE_NAME: Maximal downregulation (% CD33 remaining)
Entry rule: numbers only, all in % CD33 remaining.

binder="anti-CD33 antibody 6C7H8 (antibody, IgG1, V domains shown, VH/VL only; also called 6C7H8 IgG1; parental antibody) VH: EVQLVESGGGLVQPGGSLRLSCAGSGFTFSNYCMNWVRQAPGKGLEWVAEIRLKSNNYVTNYAASVKGRFTISRDDSKNSVYLQMNSLKTEDTGVYYCTRAGYYVPFAYWGQGTLVTVSS VL: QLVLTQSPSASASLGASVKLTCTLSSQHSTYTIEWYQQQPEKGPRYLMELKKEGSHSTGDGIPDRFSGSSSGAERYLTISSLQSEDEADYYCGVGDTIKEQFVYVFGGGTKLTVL" unit_name="% CD33 remaining" measured_value=21.5
binder="anti-CD33 antibody 6C7H10 (antibody, IgG1, V domains shown, VH/VL only; also called 6C7H10 IgG1) VH: EVQLVESGGGLVQPGGSLRLSCAASGFTFSEYAMNWVRQAPGKGLEWVGEIRLKSNNYVTNYAASVKGRFTISRDDSKNSVYLQMNSLKTEDTGVYYCTRAGYYVPFAYWGQGTLVTVSS VL: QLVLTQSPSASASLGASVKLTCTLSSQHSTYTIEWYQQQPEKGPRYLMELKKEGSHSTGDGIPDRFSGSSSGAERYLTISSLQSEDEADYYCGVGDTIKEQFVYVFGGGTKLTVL" unit_name="% CD33 remaining" measured_value=21.2
binder="anti-CD33 antibody 6C7H54 (antibody, IgG1, V domains shown, VH/VL only; also called 6C7H54 IgG1; 6C754) VH: EVQLVESGGGLVQPGGSLRLSCAGSGFTFSNYEMNWVRQAPGKGLEWVAEIRLKSNNYVTNYAASVKGRFTISRDDSKNSVYLQMNSLKTEDTGVYYCTRAGYYVPFAYWGQGTLVTVSS VL: QLMLTQSPSASASLGASVKLTCTLSSQHSTYTIEWYQQQPGKGPRYLMELKKEGSHSTGDGIPDRFSGSSSGAERYLTISSLQSEDEADYYCGVGHTIKEQFVYVFGGGTKLTVL" unit_name="% CD33 remaining" measured_value=26.1

Entry 6C7H8 IgG1 LALAPS (antibody, V domains shown) VH: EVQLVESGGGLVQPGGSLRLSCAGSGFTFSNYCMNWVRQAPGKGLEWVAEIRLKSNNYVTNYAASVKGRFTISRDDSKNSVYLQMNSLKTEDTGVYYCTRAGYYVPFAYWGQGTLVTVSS VL: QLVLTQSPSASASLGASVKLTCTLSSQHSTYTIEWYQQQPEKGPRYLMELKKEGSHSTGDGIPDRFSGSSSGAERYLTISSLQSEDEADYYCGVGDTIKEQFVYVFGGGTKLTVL ; Maximal downregulation (% CD33 remaining) = 67.4
